From: paper PMC11979273

test name: Single ascending-dose (SAD) study, plasma pharmacokinetics
Format: in vivo, human
details: both sexes, human, plasma, oral; SAD single dose 40 mg, N = 8, median (min, max); read-out: Tmax
measure: Tmax (h)

Cc1nc(-c2cnc(N3CCN(CCCc4c[nH]c5ccc(C#N)cc45)CC3)nc2)sc1C(N)=O [HEC113995PA·H2O] ... 5

* * *

test name: Single ascending-dose (SAD) study, plasma pharmacokinetics
Type: in vivo, human
details: both sexes, human, plasma, oral; SAD single dose 2.5 mg, N = 6, mean (SD); read-out: t1/2 (converted)
measure: half-life (h)

Cc1nc(-c2cnc(N3CCN(CCCc4c[nH]c5ccc(C#N)cc45)CC3)nc2)sc1C(N)=O [HEC113995PA·H2O] ... 30.3
